src = ChEMBL document CHEMBL5036349

Activity values by entry
Tested on: HEK293
Assay: Cytotoxicity against HEK293 cells at 10 uM measured after 24 to 48 hrs by Cell-titer glo assay relative to control
Assay type: cell-based
Conditions: human, hek293, 10 µM, time 24-48 hrs

compound: Cc1ccc(C(=O)NCC(=O)Nc2ccc3c(c2)/C(=C/c2cnc[nH]2)C(=O)N3)c(=O)n1Cc1ccc(F)c(F)c1
Activity: < 25%
--
compound: O=C1Nc2ccc(NC(=O)c3cccc(NC(=O)c4cccn(Cc5ccc(F)c(F)c5)c4=O)c3)cc2/C1=C/c1cnc[nH]1
Activity: < 25%
--
compound: Cc1c(Br)cc(C(=O)NCC(=O)Nc2ccc3c(c2)/C(=C/c2cnc[nH]2)C(=O)N3)c(=O)n1Cc1ccc(F)c(F)c1
Activity: < 25%
--
compound: Cc1c(Br)cc(C(=O)N[C@@H](C(=O)Nc2ccc3c(c2)/C(=C/c2cnc[nH]2)C(=O)N3)c2ccccc2)c(=O)n1Cc1ccc(F)c(F)c1
Activity: < 25%

* * *

Target: Histone deacetylase 8 (Homo sapiens)
Sequence (whole entry): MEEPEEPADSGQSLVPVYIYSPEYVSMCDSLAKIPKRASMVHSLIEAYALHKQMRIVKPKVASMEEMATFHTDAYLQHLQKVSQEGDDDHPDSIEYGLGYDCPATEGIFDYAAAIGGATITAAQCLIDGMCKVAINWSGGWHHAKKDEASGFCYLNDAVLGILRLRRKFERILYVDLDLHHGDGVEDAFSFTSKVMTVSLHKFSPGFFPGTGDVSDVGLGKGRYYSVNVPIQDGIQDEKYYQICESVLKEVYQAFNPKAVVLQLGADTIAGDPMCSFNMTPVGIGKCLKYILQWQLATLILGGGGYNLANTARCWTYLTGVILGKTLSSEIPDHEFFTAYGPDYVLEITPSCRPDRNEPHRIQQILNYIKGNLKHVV
Assay: Inhibition on human recombinant HDAC8 at 10 uM measured after 20 min by luminescence glo assay

compound: Cc1ccc(C(=O)N[C@@H](C(=O)Nc2ccc3c(c2)/C(=C/c2cnc[nH]2)C(=O)N3)c2ccccc2)c(=O)n1Cc1ccc(F)c(F)c1
inhibition: < 30%
//
compound: Cc1c(Br)cc(C(=O)NCC(=O)Nc2ccc3c(c2)/C(=C/c2cnc[nH]2)C(=O)N3)c(=O)n1Cc1ccc(F)c(F)c1
inhibition: < 30%
//
compound: O=C(CCCNC(=O)c1cccn(Cc2ccc(F)c(F)c2)c1=O)Nc1ccc2c(c1)/C(=C/c1cnc[nH]1)C(=O)N2
inhibition: < 30%
//
compound: O=C(CCNC(=O)c1cccn(Cc2ccc(F)c(F)c2)c1=O)Nc1ccc2c(c1)/C(=C/c1cnc[nH]1)C(=O)N2
inhibition: < 30%
//
compound: O=C1Nc2ccc(NC(=O)c3cccc(NC(=O)c4cccn(Cc5ccc(F)c(F)c5)c4=O)c3)cc2/C1=C/c1cnc[nH]1
inhibition: < 30%

* * *

inhibition at 0.5 h, 10 µM values by entry
Target: {'v': 'CYP3A4', 'o': 'p', 'q': 'Inhibition of CYP3A4 (unknown origin)'} (Homo sapiens, UniProt P08684)
Sequence (P08684 whole entry): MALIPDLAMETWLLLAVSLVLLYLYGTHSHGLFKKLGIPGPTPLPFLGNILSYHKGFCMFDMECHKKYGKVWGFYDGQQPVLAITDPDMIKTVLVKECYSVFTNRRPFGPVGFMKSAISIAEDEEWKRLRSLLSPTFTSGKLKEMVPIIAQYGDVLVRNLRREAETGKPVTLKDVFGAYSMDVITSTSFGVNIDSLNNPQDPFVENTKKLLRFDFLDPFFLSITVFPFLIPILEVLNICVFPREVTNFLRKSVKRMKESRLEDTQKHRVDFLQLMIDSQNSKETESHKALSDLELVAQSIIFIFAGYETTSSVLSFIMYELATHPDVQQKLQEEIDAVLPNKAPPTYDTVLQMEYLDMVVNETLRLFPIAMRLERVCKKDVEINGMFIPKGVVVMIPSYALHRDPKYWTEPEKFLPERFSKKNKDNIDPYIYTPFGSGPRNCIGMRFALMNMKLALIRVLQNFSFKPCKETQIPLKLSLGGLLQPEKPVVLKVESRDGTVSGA
Test: Inhibition of CYP3A4 (unknown origin) at 10 uM pre-incubated for 30 min followed by addition of NADPH and measured after 30 min by Luminescence based plate reader method relative to control
Assay type: ADME
Conditions: time 60 min

compound: O=C(CCNC(=O)c1cccn(Cc2ccc(F)c(F)c2)c1=O)Nc1ccc2c(c1)/C(=C/c1cnc[nH]1)C(=O)N2
inhibition at 0.5 h, 10 µM: > 90%

compound: Cc1ccc(C(=O)NCC(=O)Nc2ccc3c(c2)/C(=C/c2cnc[nH]2)C(=O)N3)c(=O)n1Cc1ccc(F)c(F)c1
inhibition at 0.5 h, 10 µM: > 90%

compound: Cc1c(Br)cc(C(=O)N[C@@H](C(=O)Nc2ccc3c(c2)/C(=C/c2cnc[nH]2)C(=O)N3)c2ccccc2)c(=O)n1Cc1ccc(F)c(F)c1
inhibition at 0.5 h, 10 µM: < 45%

* * *

Assay: Cytotoxicity against human 6647 cells measured after 72 hrs by MTT assay
Type: functional, cell-based
Settings: Homo sapiens, 6647, 72 h

compound: Cc1ccc(C(=O)N[C@@H](C(=O)Nc2ccc3c(c2)/C(=C/c2cnc[nH]2)C(=O)N3)c2ccccc2)c(=O)n1Cc1ccc(F)c(F)c1
u: µM
bound-type: =
IC50: 4.7
--
compound: O=C(O)[C@]1(Cc2cccc(Nc3nccs3)n2)CC[C@@H](Oc2cccc(Cl)c2F)CC1
u: µM
bound-type: =
IC50: 0.6
--
compound: O=C1Nc2ccc(NC(=O)[C@H](NC(=O)c3cccn(Cc4ccc(F)c(F)c4)c3=O)c3ccccc3)cc2/C1=C/c1cnc[nH]1 (stereo in doubt)
u: µM
bound-type: =
IC50: 4.8
--
compound: NCC(=O)Nc1ccc(-n2nc(C(F)(F)F)cc2-c2ccc3c(ccc4ccccc43)c2)cc1
u: µM
bound-type: =
IC50: 0.3
--
compound: O=C(N[C@@H](COc1ccc2[nH]c(=O)[nH]c2c1)c1ccccc1)c1cccn(Cc2ccc(F)c(F)c2)c1=O
u: µM
bound-type: >
IC50: 30
--
compound: Cc1c(Br)cc(C(=O)N[C@@H](C(=O)Nc2ccc3c(c2)/C(=C/c2cnc[nH]2)C(=O)N3)c2ccccc2)c(=O)n1Cc1ccc(F)c(F)c1
u: µM
bound-type: >
IC50: 30

* * *

Test system: TC-32
Assay: Cytotoxicity against human TC-32 cells measured after 72 hrs by MTT assay
Assay type: functional, cell-based
Details: TC-32, 72 h
pIC50: −log10 of the molar value.
pIC50 values by entry

compound: NCC(=O)Nc1ccc(-n2nc(C(F)(F)F)cc2-c2ccc3c(ccc4ccccc43)c2)cc1
bound-type: =
pIC50: 5.70
//
compound: Cc1c(Br)cc(C(=O)N[C@@H](C(=O)Nc2ccc3c(c2)/C(=C/c2cnc[nH]2)C(=O)N3)c2ccccc2)c(=O)n1Cc1ccc(F)c(F)c1
bound-type: <
pIC50: 4.52
//
compound: O=C1Nc2ccc(NC(=O)[C@H](NC(=O)c3cccn(Cc4ccc(F)c(F)c4)c3=O)c3ccccc3)cc2/C1=C/c1cnc[nH]1 (stereo in doubt)
bound-type: <
pIC50: 4.52
//
compound: O=C(N[C@@H](COc1ccc2[nH]c(=O)[nH]c2c1)c1ccccc1)c1cccn(Cc2ccc(F)c(F)c2)c1=O
bound-type: =
pIC50: 4.86
//
compound: O=C(O)[C@]1(Cc2cccc(Nc3nccs3)n2)CC[C@@H](Oc2cccc(Cl)c2F)CC1
bound-type: =
pIC50: 5.25
//
compound: Cc1ccc(C(=O)N[C@@H](C(=O)Nc2ccc3c(c2)/C(=C/c2cnc[nH]2)C(=O)N3)c2ccccc2)c(=O)n1Cc1ccc(F)c(F)c1
bound-type: <
pIC50: 4.52

* * *

pIC50 values by entry
Biological target: Aurora kinase A (Homo sapiens, UniProt O14965)
Sequence (O14965 whole entry): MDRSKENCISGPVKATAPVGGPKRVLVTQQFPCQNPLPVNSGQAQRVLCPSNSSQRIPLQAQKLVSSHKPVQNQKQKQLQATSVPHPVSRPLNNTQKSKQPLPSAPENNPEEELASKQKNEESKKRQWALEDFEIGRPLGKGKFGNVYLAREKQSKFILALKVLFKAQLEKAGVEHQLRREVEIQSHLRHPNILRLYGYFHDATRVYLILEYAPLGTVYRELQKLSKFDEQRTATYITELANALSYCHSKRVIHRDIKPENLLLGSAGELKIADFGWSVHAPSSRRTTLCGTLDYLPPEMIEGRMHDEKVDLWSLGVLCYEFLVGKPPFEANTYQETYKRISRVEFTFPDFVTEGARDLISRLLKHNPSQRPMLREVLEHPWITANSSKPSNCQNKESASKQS
Test: Inhibition of recombinant full length human His-tagged AURA expressed in Baculovirus expression system in presence of ATP measured by […]
Conditions: read-out: IC50
pIC50: −log10 of the molar value.

compound: O=C1Nc2ccc(NC(=O)c3cccc(NC(=O)c4cccn(Cc5ccc(F)c(F)c5)c4=O)c3)cc2/C1=C/c1cnc[nH]1
pIC50: < 5.00
--
compound: Cc1c(Br)cc(C(=O)NCC(=O)Nc2ccc3c(c2)/C(=C/c2cnc[nH]2)C(=O)N3)c(=O)n1Cc1ccc(F)c(F)c1
pIC50: < 5.00

* * *

System: Rec1
Assay: Cytotoxicity against human REC1 cells measured after 72 hrs by MTT assay
Type: functional, cell-based
Conditions: Rec1, 72 h
IC50 values by entry
recorded-endpoint: IC50 (µM)

molecule: Cc1ccc(C(=O)N[C@@H](C(=O)Nc2ccc3c(c2)/C(=C/c2cnc[nH]2)C(=O)N3)c2ccccc2)c(=O)n1Cc1ccc(F)c(F)c1
bound-type: >
test-value: 30
//
molecule: O=C(O)[C@]1(Cc2cccc(Nc3nccs3)n2)CC[C@@H](Oc2cccc(Cl)c2F)CC1
bound-type: >
test-value: 30
//
molecule: O=C1Nc2ccc(NC(=O)[C@H](NC(=O)c3cccn(Cc4ccc(F)c(F)c4)c3=O)c3ccccc3)cc2/C1=C/c1cnc[nH]1 (stereo in doubt)
bound-type: =
test-value: 11
//
molecule: O=C(N[C@@H](COc1ccc2[nH]c(=O)[nH]c2c1)c1ccccc1)c1cccn(Cc2ccc(F)c(F)c2)c1=O
bound-type: >
test-value: 30
//
molecule: NCC(=O)Nc1ccc(-n2nc(C(F)(F)F)cc2-c2ccc3c(ccc4ccccc43)c2)cc1
bound-type: =
test-value: 3.8

* * *

inhibition values by entry
Target: Histone deacetylase 8 (Homo sapiens)
Sequence (whole entry): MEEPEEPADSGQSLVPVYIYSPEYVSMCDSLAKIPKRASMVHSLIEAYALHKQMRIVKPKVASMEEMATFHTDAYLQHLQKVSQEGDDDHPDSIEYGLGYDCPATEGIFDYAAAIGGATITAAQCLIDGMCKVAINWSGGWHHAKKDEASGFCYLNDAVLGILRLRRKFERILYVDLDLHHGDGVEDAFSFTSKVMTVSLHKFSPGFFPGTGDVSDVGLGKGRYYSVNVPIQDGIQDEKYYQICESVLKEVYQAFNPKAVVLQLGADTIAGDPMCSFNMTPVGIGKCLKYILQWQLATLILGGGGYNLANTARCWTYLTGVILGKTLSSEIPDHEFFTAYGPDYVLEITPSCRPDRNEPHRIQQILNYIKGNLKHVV
Experiment: Inhibition on human recombinant HDAC8 at 10 uM measured after 20 min by luminescence glo assay
recorded-endpoint: inhibition

compound: Cc1ccc(C(=O)NCC(=O)Nc2ccc3c(c2)/C(=C/c2cnc[nH]2)C(=O)N3)c(=O)n1Cc1ccc(F)c(F)c1
test-value: < 30%
//
compound: O=C1Nc2ccc(NC(=O)[C@H](NC(=O)c3cccn(Cc4ccc(F)c(F)c4)c3=O)c3ccccc3)cc2/C1=C/c1cnc[nH]1 (stereo in doubt)
test-value: < 30%
//
compound: Cc1c(Br)cc(C(=O)N[C@@H](C(=O)Nc2ccc3c(c2)/C(=C/c2cnc[nH]2)C(=O)N3)c2ccccc2)c(=O)n1Cc1ccc(F)c(F)c1
test-value: < 30%
